# PROCEDURE DETAILS: yeast display, Sf9 membrane polyspecificity reagent, FACS + sequencing; frameworks hold sequencing errors

{"SEQUENCE DATA": "QVKLVESVGALVQAGGSHRLSCAASGNTFPWYVLGWYRHATGKERELLAAITSSGSTTYYADSVKGRFTISRDNAKNTVYLQMNSLKPDDNAVYYCAARNYGPYDYWGPGTQVTVSS", "polyreactivity (PSR sort gate)": "low polyreactivity"}
{"SEQUENCE DATA": "QVQLVESGGGLVQAGGSLRLSCAASGFIFDFYTIGWYRQAPGKEWELVAAITNGGSTYYADSVKGRFTISRVNAKNTVYLQMNSLKPEDTAVYYCAAYYRSRHHGYDSWGQGTQVTVSS", "polyreactivity (PSR sort gate)": "low polyreactivity"}
{"SEQUENCE DATA": "QVHIVETGGGLFQAGGSLRLSSASSGRIFPVYAMGWYRQAPGKERELVAAISRRGGSSYYEDSVKGRFTISRDNAKNTVYLHMNCLKTEDTEVNYFAATAYYYWWWYGGDMDYWGQGTQVSVSS", "polyreactivity (PSR sort gate)": "high polyreactivity"}
{"SEQUENCE DATA": "QVQLVESGGGLVQAGGSLRLSCAASGSTFQYNVMGWYRQAPGKERELVATISYSSGRTYYADSVKGRFTISRDNAKNTVYLQMNSLKPEDTAVYYCAAAVRLYFWTSAYKYGYWGQGTQVTVSS", "polyreactivity (PSR sort gate)": "high polyreactivity"}
{"SEQUENCE DATA": "QVQLVESGGGLVQAGGSLRLSCAASGRIFSRYAMGWYRQAPGKERELVAAITQSGTSTYYADSVKGRFTISRDNAKNTVYLQMNSLKPEDTAVYYCNAYRQYRYDYWGQGTQVTVSS", "polyreactivity (PSR sort gate)": "low polyreactivity"}

src = the nanobody polyreactivity screen of Harvey et al. (2022)
